- System: HCT116 cells
- Protocol Text: Sulforhodamine B (SRB) cell viability assay, HCT116
- Type: cell-based
- Condition Label: Homo sapiens, HCT-116, CRC cell line, 48 h, read-out: IC50 (μM) ± SD, HCT116
Observable: IC50 (µM)

- Molecule: "ClCCCN=c1cc2oc3c4c5c(cc3nc-2c2ccccc12)CCCN5CCC4"
  IC50 (µM): 1.13
- Molecule: "CCCNc1cc2oc3cc(=NCC)c(C)cc-3nc2c2ccccc12"
  IC50 (µM): 1.64
- Molecule: "CCCNc1cc2oc3cc(=[N+](CCC)CCC)ccc-3nc2c2ccccc12"
  IC50 (µM): 1.28

====

- Test system: MDA-MB-231 cells
- Protocol Text: Sulforhodamine B (SRB) cell viability assay, MDA-MB-231
- Format: cell-based, human
- Condition Label: Homo sapiens, MDA-MB-231; breast cancer cell line, 48 h, SRB; read-out: IC50 (μM) ± SD, MDA-MB-231
Observable: IC50 (µM)

- Compound: "CCCNc1cc2oc3cc(=[N+](CCC)CCC)ccc-3nc2c2ccccc12 [A36]"
  IC50, µM: 1.01

1. ClCCCN=c1cc2oc3c4c5c(cc3nc-2c2ccccc12)CCCN5CCC4 [A42]
2. CCCNc1cc2oc3cc(=NCC)c(C)cc-3nc2c2ccccc12 [C9]
Q) Of 1 and 2 , which one carries the higher reported IC50? Output the label that corresponds to your choice.
A) 2
(2: 1.19 µM, 1: 0.79 µM)

====

- System: RKO cells
- Protocol Text: Sulforhodamine B (SRB) cell viability assay, RKO
- Assay type: cell-based
- Condition Label: Homo sapiens, CRC cell line, 48 h, read-out: IC50 (μM) ± SD, RKO
Observable: IC50 (µM)
Lab book: enter the figure in µM, no units written.

Examples with their reported IC50 follow.
- Molecule: "CCCNc1cc2oc3cc(=[N+](CCC)CCC)ccc-3nc2c2ccccc12"
  Observable: "IC50"
  U: "µM"
  Measured Number: 0.37
- Molecule: "ClCCCN=c1cc2oc3c4c5c(cc3nc-2c2ccccc12)CCCN5CCC4"
  Observable: "IC50"
  U: "µM"
  Measured Number: 0.29

Next item in the queue.
Q) Fill in the recorded IC50 for this compound, with RKO cells as test system: CCCNc1cc2oc3cc(=NCC)c(C)cc-3nc2c2ccccc12
A) 0.17
